Data origin, for the record: patent US20230286983A1

EXPERIMENT: Pharmacokinetic study, 4ET-03-009 at 20 mg/kg oral
Assay type: in vivo, CD-1 male mice
SETUP_CONDITIONS: male, CD-1, mouse, plasma, oral, 20 mg/kg, 0.5 hours, mean n = 3, read-out: Plasma Conc. Mean
ENDPOINT_LABEL: concentration at 0.5 hours (ng/mL)

> print(dat)
                                   compound              endpoint.label  value.units  observed.result
1  Cc1cc(Nc2cc(NC(=O)C3CC3)ncn2)c(=O)n2c1C(=O)NC21CCOCC1 [Compound 4ET-03-009]  concentration at 0.5 hours        ng/mL              590

====

EXPERIMENT: Pharmacokinetic study, 4ET-03-009 at 20 mg/kg oral
Type: in vivo, CD-1 male mice
SETUP_CONDITIONS: male, CD-1, mouse, plasma, oral, 20 mg/kg, 2 hours, mean n = 3, read-out: Plasma Conc. Mean
ENDPOINT_LABEL: concentration at 2 hours (ng/mL)

> print(dat)
                           smiles.structure            endpoint.label  observed.result
1  Cc1cc(Nc2cc(NC(=O)C3CC3)ncn2)c(=O)n2c1C(=O)NC21CCOCC1  concentration at 2 hours              355

====

EXPERIMENT: Pharmacokinetic study, 4ET-01-021 with IV and PO dosing
Type: in vivo, CD-1 male mice
SETUP_CONDITIONS: male, CD-1, mouse, plasma, po, 3 mg/kg, orally dosed at 3 mg/kg, mean of 3 animals; read-out: AUCinf
ENDPOINT_LABEL: AUC(0-inf) (µg·h/mL)

> print(dat)
                                   molecule  endpoint.label  observed.result
1  CCC1=CC2(CCC1)NC(=O)c1c(C)cc(Nc3cc(N)ncn3)c(=O)n12 (stereo not shown) [Compound 4ET-01-021]      AUC(0-inf)              4.5

====

EXPERIMENT: Pharmacokinetic study, 4ET-01-021 with IV and PO dosing
Type: in vivo, CD-1 male mice
SETUP_CONDITIONS: male, CD-1, mouse, plasma, po; orally dosed at 3 mg/kg, mean of 3 animals
ENDPOINT_LABEL: Tmax (min)

> print(dat)
                                   molecule  observed.result
1  CCC1=CC2(CCC1)NC(=O)c1c(C)cc(Nc3cc(N)ncn3)c(=O)n12 (stereo not shown)               30

====

Tested on: P-gp (human MDR1, ABCB1)
EXPERIMENT: MDCK-MDR1 permeability (blood brain barrier permeability)
Assay type: in vitro ADME, Canine
SETUP_CONDITIONS: dog, MDCK-MDR1, 5 μM; read-out: Efflux ratio (ratio B-A/A-B)
Threshold check on efflux ratio at 5 μM: at or above 2 gives yes (1), strictly below gives no (0).

> print(dat)
                                   molecule      cat
1  Cc1cc(Nc2cc(N)ncn2)c(=O)n2c1C(=O)NC21C[C@H]2COC[C@H]2C1 (single isomer, unassigned) [Compound 4ET-01-014A]   no (0)
2  Cc1cc(Nc2cc(N)ncn2)c(=O)n2c1C(=O)NC21CCOCC1  yes (1)
3  Cc1cc(Nc2cc(NCCC(=O)O)ncn2)c(=O)n2c1C(=O)NC21CCCCC1   no (0)
4  Cc1cc(Nc2cc(NCCNS(C)(=O)=O)ncn2)c(=O)n2c1C(=O)NC21CCCC1  yes (1)
5  Cc1cc(Nc2cc(N)ncn2)c(=O)n2c1C(=O)NC21CCC(O)CC1 (stereo not shown)  yes (1)
6  CC1=CC2(CCC1)NC(=O)c1c(C)cc(Nc3cc(N)ncn3)c(=O)n12 (stereo not shown)   no (0)
7  Cc1cc(Nc2cc(NCCO)ncn2)c(=O)n2c1C(=O)NC21CCCC1  yes (1)

====

EXPERIMENT: Brain to plasma ratio, 4ET-01-021 at 3.0 mg/kg PO
Assay type: in vivo, male CD-1 mouse
SETUP_CONDITIONS: male, CD-1, mouse, brain homogenate, oral, 3 mg/kg, 2 hr, Brain, individual, read-out: Tissue Homogenate Concentration
ENDPOINT_LABEL: concentration at 2 h (ng/mL)

> print(dat)
                                   compound  observed.result
1  CCC1=CC2(CCC1)NC(=O)c1c(C)cc(Nc3cc(N)ncn3)c(=O)n12 (stereo not shown)             14.5

====

System: P-gp (human MDR1, ABCB1)
EXPERIMENT: MDCK-MDR1 permeability (blood brain barrier permeability)
Type: in vitro ADME, Canine
SETUP_CONDITIONS: dog, MDCK-MDR1, Basolateral to apical transport, 5 μM, average of two experiments
Answer f if Papp B→A at 5 μM is under 40 ×10⁻⁶ cm/s, and t if it is 40 ×10⁻⁶ cm/s or more.

> print(dat)
                                    compound              assay.system  cat
 1  CCC1=CC2(CCC1)NC(=O)c1c(C)cc(Nc3cc(N)ncn3)c(=O)n12 (centres unmarked)  P-gp (human MDR1, ABCB1)    t
 2  Cc1cc(Nc2cc(NCCC(=O)O)ncn2)c(=O)n2c1C(=O)NC21CCCCC1  P-gp (human MDR1, ABCB1)    f
 3  Cc1cc(Nc2cc(NC(=O)C3CC3)ncn2)c(=O)n2c1C(=O)NC21Cc2ccccc2[C@@H]1F (single isomer, unassigned) [Compound 4ET-03-052A]  P-gp (human MDR1, ABCB1)    t
 4  Cc1cc(Nc2cc(N)ncn2)c(=O)n2c1C(=O)NC21Cc2ccccc2[C@@H]1F (single isomer, unassigned) [Compound 4ET-01-010A]  P-gp (human MDR1, ABCB1)    t
 5  Cc1cc(Nc2cc(NC(=O)C3CC3)ncn2)c(=O)n2c1C(=O)NC21Cc2ccccc2[C@@H]1O (stereo in doubt)  P-gp (human MDR1, ABCB1)    t
 6  Cc1cc(Nc2cc(N)ncn2)c(=O)n2c1C(=O)NC2(C)C  P-gp (human MDR1, ABCB1)    f
 7  Cc1cc(Nc2cc(NC(=O)C3CC3)ncn2)c(=O)n2c1C(=O)NC21CCCC1  P-gp (human MDR1, ABCB1)    t
 8  Cc1cc(Nc2cc(N)ncn2)c(=O)n2c1C(=O)NC21CCOCC1  P-gp (human MDR1, ABCB1)    f
 9  Cc1cc(Nc2cc(NC(=O)C3CC3)ncn2)c(=O)n2c1C(=O)NC21CCC(O)CC1 (centres unmarked)  P-gp (human MDR1, ABCB1)    f
10  Cc1cc(Nc2cc(NC(=O)C3CC3)ncn2)c(=O)n2c1C(=O)NC21CCOCC1  P-gp (human MDR1, ABCB1)    f
11  Cc1cc(Nc2cc(NCCO)ncn2)c(=O)n2c1C(=O)NC21CCCC1  P-gp (human MDR1, ABCB1)    f
12  Cc1cc(Nc2cc(N)ncn2)c(=O)n2c1C(=O)NC21CCC(O)CC1 (centres unmarked)  P-gp (human MDR1, ABCB1)    f
13  Cc1cc(Nc2cc(N)ncn2)c(=O)n2c1C(=O)NC21CCCCC1 [eFT508, reference compound]  P-gp (human MDR1, ABCB1)    t
14  Cc1cc(Nc2cc(NCCN3CCOCC3)ncn2)c(=O)n2c1C(=O)NC21CCCCC1  P-gp (human MDR1, ABCB1)    t
15  Cc1cc(Nc2cc(NCCNS(C)(=O)=O)ncn2)c(=O)n2c1C(=O)NC21CCCC1  P-gp (human MDR1, ABCB1)    f
16  Cc1cc(Nc2cc(N)ncn2)c(=O)n2c1C(=O)NC21CCC(NS(C)(=O)=O)CC1 (centres unmarked)  P-gp (human MDR1, ABCB1)    f
17  Cc1cc(Nc2cc(NCCNS(C)(=O)=O)ncn2)c(=O)n2c1C(=O)NC21CCCCC1  P-gp (human MDR1, ABCB1)    f
18  Cc1cc(Nc2cc(NC(=O)C(C)C)ncn2)c(=O)n2c1C(=O)NC21CCCC1  P-gp (human MDR1, ABCB1)    t
19  CC1=CC2(CCC1)NC(=O)c1c(C)cc(Nc3cc(N)ncn3)c(=O)n12 (centres unmarked)  P-gp (human MDR1, ABCB1)    t

====

EXPERIMENT: Pharmacokinetic study, 4ET-03-009 at 20 mg/kg oral
Assay type: in vivo, CD-1 male mice
SETUP_CONDITIONS: male, CD-1, mouse, plasma, oral, 20 mg/kg, 4 hours, mean n = 3, read-out: Plasma Conc. Mean
ENDPOINT_LABEL: concentration at 4 hours (ng/mL)

> print(dat)
                           smiles.structure  observed.result
1  Cc1cc(Nc2cc(NC(=O)C3CC3)ncn2)c(=O)n2c1C(=O)NC21CCOCC1              153
